These entries and their values trace back to ChEMBL document CHEMBL5058577.

System: U2OS
ASSAY: Multiplex assay against U2OS
Format: toxicity, cell-based
CONDITION CONTEXT: human, 48 h, 1 µM, compound concentration 1 uM, replicate 1
Non-standard residues stand in square brackets, D forms with d. Residues, ends and D or L forms follow the SMILES beside them.
Provide the recorded Population Tubulin-Different-Phenotype (%) for the entries that follow.
# output: bare number, implied unit %

Write down the reported Population Tubulin-Different-Phenotype (%) of `CC(C)(O)C(=O)N1CCN(c2ccc(C(F)(F)F)c(C3=C(c4c[nH]c5ccccc45)C(=O)NC3=O)c2)CC1` , test system: U2OS. 5

Provide value of Population Tubulin-Different-Phenotype (%) for this record tested with U2OS: Cc1cc(NC(=O)NCCN2CCC(O)(Cc3ccccc3)CC2)c2ccccc2n1 [PALOSURAN] 3

Find Population Tubulin-Different-Phenotype (%) (U2OS) for the entry CC(C)C[C@H](CO)Nc1nc(S[C@@H](C)c2ccccc2)nc2nc(N)sc12 [AZD-8797] 2

Observed Population Tubulin-Different-Phenotype (%) on U2OS for `CN1CCC(C(=O)c2cccc(NC(=O)c3c(F)cc(F)cc3F)n2)CC1` , please. 2

Report Population Tubulin-Different-Phenotype (%) for CSc1nc(NC2CCCC2)c([N+](=O)[O-])c(NC2CCCC2)n1 [GS-39783] tested on U2OS. 1

Lab note: need Population Tubulin-Different-Phenotype (%) for COc1ccc2[nH]c(I)c(CCNC(C)=O)c2c1 [IODOMELATONIN] on U2OS, anyone have it? 3

Query for U2OS: what Population Tubulin-Different-Phenotype (%) does the record show for `COCCn1c(C)c(C)s/c1=N\C(=O)C1C(C)(C)C1(C)C` ? 4

Lab note: need Population Tubulin-Different-Phenotype (%) for CC(C)C[C@@H]1NC(=O)[C@@H](C(C)C)NC(=O)[C@@H]2CCCN2C(=O)[C@@H](CC(=O)O)NC(=O)[C@@H](Cc2c[nH]c3ccccc23)NC1=O [BQ-123] (cyclo(L[dW][dD]P[dV])) on U2OS, anyone have it? 3

Give U2OS Population Tubulin-Different-Phenotype (%) for COc1c(Nc2ccc(S(C)(=O)=O)nc2C)ncnc1OC1CCN(C(=O)OC(C)C)CC1 [ADP-597] 2

// lookup Population Tubulin-Different-Phenotype (%) | system=U2OS | key= C=CCN1C[C@H](C(=O)N(CCCN(C)C)C(=O)NCC)C[C@@H]2c3cccc4[nH]cc(c34)C[C@H]21 [CABERGOLINE] 3

// lookup Population Tubulin-Different-Phenotype (%) | system=U2OS | key= `CCc1nn2c(C)cc(C)nc2c1Cc1ccc(-c2nnc(C3CCNCC3)o2)cc1` 4

Report Population Tubulin-Different-Phenotype (%) for `Cc1cc(=O)n(C)c2cc(N3C(=O)CC[C@H](NS(=O)(=O)CC(C)C)[C@H]3c3ccc(Cl)cc3)ccc12` tested on U2OS. 2

Checklist item: Population Tubulin-Different-Phenotype (%) tested on U2OS, entry `C[C@@H]1CC(=O)Nc2cccc(-c3ccc4c(c3)c(-c3cnn(C)c3)nn4C)c2N1` , value? 3

Recorded Population Tubulin-Different-Phenotype (%) for `Cc1nn(C)c2nc(NNC(=O)Nc3cc(Cl)nc(Cl)c3)cc(C(C)C)c12` with U2OS, please? 2

Lab note: need Population Tubulin-Different-Phenotype (%) for `COc1cc2nc(N3CCN(C(=O)COc4c(OC)cccc4C(C)C)CC3)nc(N)c2cc1OC.Cl.Cl` on U2OS, anyone have it? 4

Request body: readout Population Tubulin-Different-Phenotype (%), system U2OS, query `N[C@](CC1c2ccccc2Oc2ccccc21)(C(=O)O)[C@H]1C[C@@H]1C(=O)O` . Return the value. 1

Find the measured Population Tubulin-Different-Phenotype (%): item COCCCN1CCC(NC(=O)c2cc(Cl)c(N)c3c2OCC3)CC1 [PRUCALOPRIDE] , target or system U2OS. 3

API: value(readout= Population Tubulin-Different-Phenotype (%), system= U2OS, query= CCCCC[C@H](O)/C=C/[C@H]1[C@H](O)CC(=O)[C@@H]1CCCCCCC(=O)O [ALPROSTADIL] ) 2

Could you share what Population Tubulin-Different-Phenotype (%) was measured for O=c1ccc2ccc(OCCCCN3CCN(c4cccc5sccc45)CC3)cc2[nH]1 [BREXPIPRAZOLE] , tested on U2OS? 8

Report Population Tubulin-Different-Phenotype (%) for CN(C)C/C=C/C(=O)Nc1ccc(C(=O)N2CCCC(Nc3ncc(Cl)c(-c4c[nH]c5ccccc45)n3)C2)cc1 (configuration not stated) tested on U2OS. 5

Lab note: need Population Tubulin-Different-Phenotype (%) for Nc1nc(CC(=O)Nc2ccc(CCNC[C@H](O)c3ccccc3)cc2)cs1 [MIRABEGRON] on U2OS, anyone have it? 3

What is its Population Tubulin-Different-Phenotype (%) for U2OS? Entry: Cc1ccc(OCC(O)C(C)NC(C)C)c2c1CCC2.Cl (configuration not stated) 3
